assay: Pharmacokinetic/toxicokinetic evaluation in dogs; format: in vivo, beagle dogs; details: female, beagle, dog, plasma, iv, 1.2 mg/kg, female, 1.2 mg/kg once daily, Dose 5, read-out: Mean AUC(0-24)
Property label: AUC(0-t) (ng·h/mL)
Write down the numeric answer in ng·h/mL and omit the unit.

Exam item: For CN1CCCC1CCNC(=O)c1cn2c3c(c(N4CCC(c5cnccn5)C4)c(F)cc3c1=O)Oc1cc3ccccc3cc1-2 (stereo not shown) , what is its reported AUC(0-t)?
Marked response: 444

* * *

// IC50 lookup, one value per entry
biological target: c-Myc template DNA (c-myc quadruplex); assay: Quadruplex binding / stop assay (Taq polymerase arrest, capillary electrophoresis); conditions: read-out: Stop Data c-Myc μM; concentration at which 50% of the DNA was arrested (arrested:full-length 1:1)

Example compounds with recorded IC50:
| Compound | Target system | IC50 |
| --- | --- | --- |
| CN1CCCC1CCNC(=O)c1cn2c3c(c(NCC4CC(C)(C)N(O)C4(C)C)c(F)cc3c1=O)Oc1cc3ccccc3cc1-2 (centres unmarked) | c-Myc template DNA (c-myc quadruplex) | 0.375 µM |
| CN1CCCC1CCNC(=O)c1cn2c3c(c(NCCCn4ccnc4)c(F)cc3c1=O)Oc1cc3ccccc3cc1-2 (centres unmarked) | c-Myc template DNA (c-myc quadruplex) | 1 µM |
| CN1CCCC1CCNC(=O)c1cn2c3c(c(NCCN4CCCCC4)c(F)cc3c1=O)Oc1cc3ccccc3cc1-2 (centres unmarked) | c-Myc template DNA (c-myc quadruplex) | 0.75 µM |

Exam item: For O=C(Nc1nnc(C(F)(F)F)s1)c1cn2c3c(c(NCCN4CCCC4)c(F)cc3c1=O)Oc1ccccc1-2 , what is its reported IC50?
Marked response: 2.5 µM

Exam item: For NCc1cn2c3c(c(N4CCC(N)C4)c(F)cc3c1=O)Oc1cc3ccccc3cc1-2 (centres unmarked) , what is its reported IC50?
Marked response: 2.5 µM

Exam item: For CN(C)CCCCNC(=O)c1cn2c3cc4oc5cc([N+](=O)[O-])ccc5[nH]c4cc3oc3c(NCCN4CCCC4)c(F)cc(c1=O)c32 , what is its reported IC50?
Marked response: 0.75 µM

Exam item: For NC1CCN(C(=O)c2cn3c4c(c(N5CC6CCCNC6C5)c(F)cc4c2=O)Oc2cc4ccccc4cc2-3)C1 (centres unmarked) , what is its reported IC50?
Marked response: 1.75 µM

Exam item: For CN1CCCC1CCNC(=O)c1cn2c3c(c(N4CC[C@@H](NC(=O)CCN5CCOCC5)C4)c(F)cc3c1=O)Oc1cc3c(cc1-2)oc1ccccc13 (some centres unmarked) , what is its reported IC50?
Marked response: 0.75 µM

Exam item: For O=C(c1cn2c3c(c(NCCCNC4CCCCC4)c(F)cc3c1=O)Oc1cc3ccccc3cc1-2)N1CCOCC1 , what is its reported IC50?
Marked response: 1.75 µM

* * *

system: i-motif (IMOTIF99); test: Direct interaction assay; format: binding; settings: insert I-Motif
pIC50: −log10 of the molar value.
Property label: pIC50

Exam item: For CN1CCCC1CCNC(=O)c1cn2c3c(c(N4CCC(c5cnccn5)C4)c(F)cc3c1=O)Oc1cc3ccccc3cc1-2 (stereo not shown) , what is its reported pIC50?
Marked response: < 5.00

* * *

// log10 of IC50 lookup, one value per entry
molecular target: c-Myc template DNA (c-myc quadruplex); test: Quadruplex binding / stop assay (Taq polymerase arrest, capillary electrophoresis); settings: read-out: Stop Data c-Myc μM; concentration at which 50% of the DNA was arrested (arrested:full-length 1:1)
Would you kindly interpret these values as log10 of IC50 expressed in µM?

| Compound | Recorded value |
| --- | --- |
| CN1CCN(CCCNC(=O)c2cn3c4c(c(N5CC[C@@H](N)C5)c(F)cc4c2=O)Oc2c-3ccc3ccccc23)CC1 | 0.05 |

Exam item: For O=C(NCCN1CCCC1)c1cn2c3c(c(NCCCN4CCOCC4)c(F)cc3c1=O)Oc1cc3c(cc1-2)-c1ccccc1C3 , what is its reported log10 of IC50?
Marked response: -0.12

Exam item: For CN1CCCC1CCNC(=O)c1cn2c3cc4c(=O)c5ccccc5c(=O)c4cc3oc3c(N4CCC(NC(=O)OC(C)(C)C)C4)c(F)cc(c1=O)c32 (stereo not drawn) , what is its reported log10 of IC50?
Marked response: 0.24

Exam item: For CN1CCCC1CCNC(=O)c1cn2c3c(c(NCCCN4CCOCC4)ccc3c1=O)Oc1cc3ccccc3cc1-2 (stereo not drawn) , what is its reported log10 of IC50?
Marked response: 0.24

Exam item: For CN1CCN(CCCNc2ccc3c(=O)c(C(=O)NCCN4CCOCC4)cn4c3c2Oc2cc3ccccc3cc2-4)CC1 , what is its reported log10 of IC50?
Marked response: 0.24

Exam item: For N[C@@H]1CCN(c2c(F)cc3c(=O)c(C(=O)NCCCn4ccnc4)cn4c3c2Oc2c-4ccc3ccccc23)C1 , what is its reported log10 of IC50?
Marked response: 0.24

* * *

// IC50 lookup, one value per entry
target: c-Myc template DNA (c-myc quadruplex); assay: Quadruplex binding / stop assay (Taq polymerase arrest, capillary electrophoresis); conditions: read-out: Stop Data c-Myc μM; concentration at which 50% of the DNA was arrested (arrested:full-length 1:1)
Write down the numeric answer in µM and omit the unit.

| Compound | Measure unit | IC50 |
| --- | --- | --- |
| NC1CCN(c2c(F)cc3c(=O)c(C(=O)NCCc4cnc[nH]4)cn4c3c2Oc2cc3ccccc3cc2-4)C1 (stereo not shown) | µM | 0.75 |
| CN(C)CCCCNC(=O)c1cn2c3cc4c(cc3oc3c(NCCCN5CCOCC5)c(F)cc(c1=O)c32)c(=O)c1ccccc14 | µM | 0.375 |
| CN1CCCC1CCNC(=O)c1cn2c3c(c(N4CCC(NC(=O)OC(C)(C)C)C4)ccc3c1=O)Oc1cc3ccccc3cc1-2 (stereo not shown) | µM | 0.75 |
| CN1CCN(CCCNc2ccc3c(=O)c(C(=O)NCCN4CCCC4)cn4c3c2Oc2cc3ccccc3cc2-4)CC1 | µM | 0.75 |

Exam item: For CN1CCCC1CCNC(=O)c1cn2c3cc4oc5cc([N+](=O)[O-])ccc5[nH]c4cc3oc3c(NCCC4CCCN4C)c(F)cc(c1=O)c32 (stereo not shown) , what is its reported IC50?
Marked response: 0.18

Exam item: For CN1CCN(CCCNC(=O)c2cn3c4c(c(NCCN5CCOCC5)c(F)cc4c2=O)Oc2cc4c(cc2-3)oc2ccccc24)CC1 , what is its reported IC50?
Marked response: 1.75

Exam item: For CC(C)NCCCNC(=O)c1cn2c3c(c(N4CCC(N)C4)c(F)cc3c1=O)Oc1cc3ccccc3cc1-2 (stereo not shown) , what is its reported IC50?
Marked response: 0.375

* * *

assay: Pharmacokinetic/toxicokinetic evaluation in dogs; format: in vivo, beagle dogs; conditions: male, beagle, dog, plasma, iv, 1.2 mg/kg, male, Dose 5, 1.2 mg/kg IV once daily for 5 days, mean, read-out: Cmax
Property label: Cmax (ng/mL)
Write down the numeric answer in ng/mL and omit the unit.

Exam item: For CN1CCCC1CCNC(=O)c1cn2c3c(c(N4CCC(c5cnccn5)C4)c(F)cc3c1=O)Oc1cc3ccccc3cc1-2 (stereo not shown) , what is its reported Cmax?
Marked response: 126

* * *

tested on: HeLa cells; test: MTS cell proliferation and/or cytotoxicity assay; type: cell-based, Human; conditions: Homo sapiens, HeLa, 72 h, concentration at which 50% of antiproliferative cell response is seen; 3 days incubation; read-out: MTS Data Hella
// IC50 lookup, one value per entry
Write down the numeric answer in µM and omit the unit.

Example compounds with recorded IC50:
| Compound | IC50 / µM |
| --- | --- |
| CN(C)CC(C)(C)CNC(=O)c1cn2c3c(c(N4CC5CCCNC5C4)c(F)cc3c1=O)Oc1cc3ccccc3cc1-2 (stereo not shown) | 0.4 |
| CCN(C)CCCC(C)NC(=O)c1cn2c3c(c(NCCN4CCCC4)ccc3c1=O)Oc1cc3ccccc3cc1-2 (stereo not shown) | 0.2 |
| N[C@@H]1CCN(c2c(F)cc3c(=O)c(C(=O)NCCN4CCCC4)cn4c3c2Oc2ccccc2-4)C1 | 0.22 |

Exam item: For COc1ccc(CCNc2c(F)cc3c(=O)c(C(=O)NCCC4CCCN4C)cn4c3c2Oc2cc3ccccc3cc2-4)cc1OC (stereo not shown) , what is its reported IC50?
Marked response: 2.3

* * *

molecular target: c-Myc template DNA (c-myc quadruplex); assay: Quadruplex binding / stop assay (Taq polymerase arrest, capillary electrophoresis); conditions: read-out: Stop Data c-Myc μM; concentration at which 50% of the DNA was arrested (arrested:full-length 1:1)
Property label: IC50 (µM)
Write down the numeric answer in µM and omit the unit.

Example molecules with recorded IC50:
| Molecule | Target system | Measure unit | Recorded value |
| --- | --- | --- | --- |
| CN1CCC[C@H]1CCNC(=O)c1cn2c3c(c(N4CCC(c5cnccn5)C4)c(F)cc3c1=O)Oc1cc3ccccc3cc1-2 (some centres unmarked) [compound 339] | c-Myc template DNA (c-myc quadruplex) | µM | 0.94 |
| CN(C)CCCCNc1c(F)cc2c(=O)c(C(=O)NCCN3CCOCC3)cn3c2c1Oc1c-3ccc2ccccc12 | c-Myc template DNA (c-myc quadruplex) | µM | 1.75 |
| CN1CCCC1CCNC(=O)c1cn2c3c(c(N4CC[C@@H](N)C4)c(F)cc3c1=O)Oc1c-2ccc2ccccc12 (some centres unmarked) | c-Myc template DNA (c-myc quadruplex) | µM | 1.75 |

Let's switch to this molecule now.
Exam item: # value lookup — system c-Myc template DNA (c-myc quadruplex), readout IC50, item CCN(CC)C1CCN(c2c(F)cc3c(=O)c(C(=O)NCCC4CCCN4C)cn4c3c2Oc2cc3ccccc3cc2-4)C1 (centres unmarked)
Marked response: 1.75
